Target: furin, P09958;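 further: purified furin at 1:10 enzyme:substrate in 50 mM HEPES pH 7.5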
Sequence (P09958 whole entry): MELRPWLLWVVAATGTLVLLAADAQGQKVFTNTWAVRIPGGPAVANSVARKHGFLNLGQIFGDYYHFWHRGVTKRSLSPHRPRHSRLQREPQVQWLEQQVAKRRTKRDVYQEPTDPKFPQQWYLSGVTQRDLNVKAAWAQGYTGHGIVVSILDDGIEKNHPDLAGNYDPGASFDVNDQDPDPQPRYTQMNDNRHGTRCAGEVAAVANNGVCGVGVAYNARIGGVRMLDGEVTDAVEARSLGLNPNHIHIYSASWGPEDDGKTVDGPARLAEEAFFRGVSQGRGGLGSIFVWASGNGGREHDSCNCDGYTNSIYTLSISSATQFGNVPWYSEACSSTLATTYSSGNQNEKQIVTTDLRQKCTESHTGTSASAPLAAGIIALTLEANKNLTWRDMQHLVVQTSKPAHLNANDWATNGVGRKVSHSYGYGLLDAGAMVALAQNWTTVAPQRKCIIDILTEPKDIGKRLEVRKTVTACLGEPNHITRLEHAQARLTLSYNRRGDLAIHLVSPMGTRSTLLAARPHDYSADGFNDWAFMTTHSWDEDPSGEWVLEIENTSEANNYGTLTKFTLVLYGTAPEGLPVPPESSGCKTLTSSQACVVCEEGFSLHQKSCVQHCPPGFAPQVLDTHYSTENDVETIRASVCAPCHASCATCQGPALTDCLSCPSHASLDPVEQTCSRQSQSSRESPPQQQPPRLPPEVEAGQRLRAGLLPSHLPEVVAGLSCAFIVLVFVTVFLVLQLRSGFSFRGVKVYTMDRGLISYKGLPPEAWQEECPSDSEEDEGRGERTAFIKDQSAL
Test: furin cleavage Z-score vs untreated control; higher = more cleavage, active = 3.5 or more, inactive = 1 or less, 8 variable residues between constant flanks
Details: 7.5 min
The list shows a part of the results. How many sequences the whole screen found active is unknown.
Quick reference for furin cleavage Z-score among some sequences
property: furin cleavage Z-score

| residues | property | observed |
| --- | --- | --- |
| CALCECYDAGAGNASASA [HC919] | furin cleavage Z-score | -0.871 |
| CADKRRSVRIAGNASASA [FS-1669] | furin cleavage Z-score | 0.236 |
| CANKRRSVRFAGNASASA [FS-833] | furin cleavage Z-score | 5.74 |
| CARKPRCGNPAGNASASA [FU7] | furin cleavage Z-score | 0.143 |
| CARTQRSTEIAGNASASA [FS-2614] | furin cleavage Z-score | 1.54 |
| CARAERKTEIAGNASASA [FS-2881] | furin cleavage Z-score | -0.287 |
| CADVVTKLPLAGNASASA [HC1459] | furin cleavage Z-score | 0.775 |
